Answer each item with its documented inhibition at 1 µg/mL.
molecular target: HIV reverse transcriptase (HIV-RT) (Human immunodeficiency virus type 1 group M subtype B); construct: purchased Boehringer Mannheim; assay: in vitro inhibition test against HIV reverse transcriptase; assay type: biochemical, HIV (AIDS virus); conditions: 1 μg/ml; read-out: Inhibitory effect of HIV-RT
Give bare numbers, in %.

Solved cases (3 shown):
CC(C)Nc1cccnc1N1CCN(C(=O)c2ccc(C(=O)NCCN3CCOCC3)cc2)CC1 | 71
CC(C)Nc1cccnc1N1CCN(C(=O)c2ccc(C(=O)NCCN(C)C)cc2)CC1 | 65
CC(C)Nc1cccnc1N1CCN(C(=O)c2ccc(C(=O)N3CCOCC3)cc2)CC1 | 52

For each entry beneath this line, provide reported inhibition at 1 µg/mL.
1. CCCN(CCO)C(=O)c1ccc(C(=O)N2CCN(c3ncccc3NC(C)C)CC2)cc1
2. COCCN(CCOC)C(=O)c1ccc(C(=O)N2CCN(c3ncccc3NC(C)C)CC2)cc1
3. CC(C)Nc1cccnc1N1CCN(C(=O)c2ccc(C(=O)N[C@H](CO)C(C)C)cc2)CC1
4. CC(C)Nc1cccnc1N1CCN(C(=O)c2ccc(C(=O)NCCOCCO)cc2)CC1
5. CC(C)Nc1cccnc1N1CCN(C(=O)c2ccc(C(=O)N3CCN(CCOCCO)CC3)cc2)CC1

1: 60; 2: 58; 3: 78; 4: 53; 5: 58
